# Tested on: M. tuberculosis wild type, biotin-free medium, growth
# PROTOCOL_DETAILS: growth inhibition of wild-type M. tuberculosis, biotin-free medium, single point, dry powder (AID 743350)
The source made the active and inactive calls. No rule for the calls is given here.
Answer with one of the outcomes Y = active, N = inactive

SMI	QUALITATIVE_LABEL
CC(=O)c1ccc(N2CCN(C(=O)c3ccccc3F)CC2)cc1	N

Status in this test for `CC(=O)c1ccc(N2CCN(C(=O)c3ccccc3Cl)CC2)cc1` ? N

What do you get for `CC(=O)c1ccc(N2CCN(C(=O)c3ccc4c(c3)OCO4)[C@H](C)C2)cc1` ? Y

Also check `CN1c2ccc(-c3cccc(F)c3)cc2[C@H]2[C@H](CCN2C(=O)Nc2ccccc2F)[C@H]1CO` N

And for `COc1ccc(NC(=O)N2CC[C@@H]3[C@@H](CO)N(C)c4ccc(-c5cccc(F)c5)cc4[C@@H]32)cc1` ? N

Thanks! And `CC(=O)c1ccc(NCCNC(=O)c2ccc3c(c2)OCO3)cc1` ? N

// next record `CCC(=O)N1CC[C@@H]2[C@@H](CO)N(C)c3ccc(-c4ccc(F)cc4)cc3[C@@H]21` N

Continue with `CN1c2ccc(-c3cccc(F)c3)cc2[C@@H]2[C@@H](CCN2C(=O)c2ccc3c(c2)OCO3)[C@H]1CO` N

Same question for `CCCNC(=O)N1CC[C@@H]2[C@@H](CO)N(C)c3ccc(-c4ccc(F)cc4)cc3[C@@H]21` please. N

Now give it for `CN(C)C(=O)c1ccc(N2CCN(C(=O)c3ccc4c(c3)OCO4)CC2)cc1` too. N

Next up: `CC(=O)c1ccc(N2CC3(CN(C(=O)c4ccc5c(c4)OCO5)C3)C2)cc1` N

Same for `COCC(=O)N1CC[C@@H]2[C@@H](CO)N(C)c3ccc(-c4cccc(F)c4)cc3[C@@H]21` N

// next record `CN1c2ccc(-c3cccc(F)c3)cc2[C@H]2[C@H](CCN2C(=O)Cc2ccccc2)[C@H]1CO` N

Cool, now `COc1ccccc1C(=O)N1CCN(c2ccc(C(C)=O)cc2)CC1` N

Another compound to look at: `CN1c2ccc(-c3cccc(F)c3)cc2[C@H]2[C@H](CCN2C(=O)c2ccc3c(c2)OCO3)[C@@H]1CO` N

Where do the numbers come from? From PubChem BioAssay AID743350.
